target: UniProtKB P35372; test: radio-ligand competition binding assay, μ
pKi: −log10 of the molar value.
Recorded pKi for the following compounds
property_name: pKi

* CCN(CC)C(=O)c1ccc([C@H](c2cccc(O)c2)N2C[C@@H](C)N(Cc3ccc(F)cc3)C[C@@H]2C)cc1 | 7.57
* CCN(CC)C(=O)c1ccc([C@H](c2cccc(O)c2)N2C[C@@H](C)N(Cc3ccc(C(=O)O)cc3)C[C@@H]2C)cc1 | 5.46
* CCN(CC)C(=O)c1cccc([C@H](c2cccc(O)c2)N2C[C@@H](C)N(Cc3cccc(O)c3)C[C@@H]2C)c1 | 8.89
* CCN(CC)C(=O)c1ccc([C@H](c2cccc(O)c2)N2C[C@@H](C)N(Cc3ccccc3)C[C@@H]2C)cc1 | 8.84

---

molecular target: μ opioid receptor (Homo sapiens, UniProt P35372); experiment: radio-ligand competition binding assay, μ; details: radio-ligand competition binding per U.S. Pat. Nos. 5,985,880 and 5,807,858; read-out: μ binding affinity
property_name: Ki (nM)

- C=CCN1C[C@H](C)N([C@H](c2ccc(C(=O)N(CC)CC)cc2)c2cccc(OCC(=O)O)c2)C[C@H]1C [Example 14]: 162

---

test system: male CD-1 mice, electrically stimulated ejaculation; test: electroejaculation test in conscious male mice (bipolar rectal probe); format: in vivo, mouse; details: male mice, subcutaneous injection, dose giving max. ejaculation inhibition
Recorded Optimal Dose for the following molecules
property_name: Optimal Dose (mg/kg)

* CCN(CC)C(=O)c1ccc([C@H](c2cccc(O)c2)N2C[C@@H](C)N(Cc3ccc(C(=O)O)cc3)C[C@@H]2C)cc1 | 5
* CCN(CC)C(=O)c1ccc([C@H](c2cccc(O)c2)N2C[C@@H](C)N(Cc3ccc(F)cc3)C[C@@H]2C)cc1 | 5
* CCN(CC)C(=O)c1cccc([C@H](c2cccc(O)c2)N2C[C@@H](C)N(Cc3cccc(O)c3)C[C@@H]2C)c1 | 1
* CCN(CC)C(=O)c1ccc([C@H](c2cccc(O)c2)N2C[C@@H](C)N(Cc3ccccc3)C[C@@H]2C)cc1 | 5
* C=CCN1C[C@H](C)N([C@H](c2ccc(C(=O)N(CC)CC)cc2)c2cccc(OCC(=O)O)c2)C[C@H]1C | 10

---

Recorded pKi for the following compounds
target: κ opioid receptor (Homo sapiens); test: radio-ligand competition binding assay, κ
pKi: −log10 of the molar value.
property_name: pKi

• CCN(CC)C(=O)c1ccc([C@H](c2cccc(O)c2)N2C[C@@H](C)N(Cc3ccc(C(=O)O)cc3)C[C@@H]2C)cc1 = < 7.00
• C=CCN1C[C@H](C)N([C@H](c2ccc(C(=O)N(CC)CC)cc2)c2cccc(OCC(=O)O)c2)C[C@H]1C = < 7.00

---

Recorded pKi for the following molecules
biological target: delta opioid receptor (Homo sapiens, UniProt P41143); experiment: radio-ligand competition binding assay, δ; conditions: radio-ligand competition binding per U.S. Pat. Nos. 5,985,880 and 5,807,858; read-out: δ binding affinity
pKi: −log10 of the molar value.
property_name: pKi

• CCN(CC)C(=O)c1ccc([C@H](c2cccc(O)c2)N2C[C@@H](C)N(Cc3ccc(F)cc3)C[C@@H]2C)cc1 [Example 11] = 8.91
• CCN(CC)C(=O)c1cccc([C@H](c2cccc(O)c2)N2C[C@@H](C)N(Cc3cccc(O)c3)C[C@@H]2C)c1 [Example 17] = 9.18
• CCN(CC)C(=O)c1ccc([C@H](c2cccc(O)c2)N2C[C@@H](C)N(Cc3ccccc3)C[C@@H]2C)cc1 [Example 12] = 9.91

---

biological target: κ opioid receptor (Homo sapiens, UniProt P41145); assay: radio-ligand competition binding assay, κ; conditions: radio-ligand competition binding per U.S. Pat. Nos. 5,985,880 and 5,807,858; read-out: κ binding affinity
pKi: −log10 of the molar value.
Recorded pKi for the following compounds
property_name: pKi

• CCN(CC)C(=O)c1cccc([C@H](c2cccc(O)c2)N2C[C@@H](C)N(Cc3cccc(O)c3)C[C@@H]2C)c1 = 7.68
• CCN(CC)C(=O)c1ccc([C@H](c2cccc(O)c2)N2C[C@@H](C)N(Cc3ccccc3)C[C@@H]2C)cc1 = 7.16

---

biological target: delta opioid receptor (Homo sapiens, UniProt P41143); assay: radio-ligand competition binding assay, δ
pKi: −log10 of the molar value.
Recorded pKi for the following compounds
property_name: pKi

* CCN(CC)C(=O)c1ccc([C@H](c2cccc(O)c2)N2C[C@@H](C)N(Cc3ccc(C(=O)O)cc3)C[C@@H]2C)cc1 [Example 13] | 8.24
* C=CCN1C[C@H](C)N([C@H](c2ccc(C(=O)N(CC)CC)cc2)c2cccc(OCC(=O)O)c2)C[C@H]1C [Example 14] | 7.95

---

Test system: male CD-1 mice, electrically stimulated ejaculation
Assay: electroejaculation test in conscious male mice (bipolar rectal probe)
Type: in vivo, mouse
Details: male mice, subcutaneous injection, at the optimal dose
From the text: To investigate the efficacy of delta opioid receptor agonists as a treatment for premature ejaculation, intact conscious male mice were electrically stimulated subsequent to the administration of a delta opioid receptor agonist to determine if a delay in ejaculation was observed when compared to administration of a placebo Male, CD-1 mice (20-30 g) were housed in groups of ten (10) in Plexiglas® chambers with food and water available before any procedure. […]
Recorded Max. ejaculation Inhibition for the following compounds
property_name: Max. ejaculation Inhibition (%)

* CCN(CC)C(=O)c1ccc([C@H](c2cccc(O)c2)N2C[C@@H](C)N(Cc3ccc(C(=O)O)cc3)C[C@@H]2C)cc1 [Example 13] | 50
* CCN(CC)C(=O)c1ccc([C@H](c2cccc(O)c2)N2C[C@@H](C)N(Cc3ccccc3)C[C@@H]2C)cc1 [Example 12] | 28
* CCN(CC)C(=O)c1ccc([C@H](c2cccc(O)c2)N2C[C@@H](C)N(Cc3ccc(F)cc3)C[C@@H]2C)cc1 [Example 11] | 30
* C=CCN1C[C@H](C)N([C@H](c2ccc(C(=O)N(CC)CC)cc2)c2cccc(OCC(=O)O)c2)C[C@H]1C [Example 14] | 35
* CCN(CC)C(=O)c1cccc([C@H](c2cccc(O)c2)N2C[C@@H](C)N(Cc3cccc(O)c3)C[C@@H]2C)c1 [Example 17] | 50
